Listing of recorded pIC50 by entry.
Biological target: aldosterone synthase (Homo sapiens, UniProt P19099)
Sequence (P19099 25-503): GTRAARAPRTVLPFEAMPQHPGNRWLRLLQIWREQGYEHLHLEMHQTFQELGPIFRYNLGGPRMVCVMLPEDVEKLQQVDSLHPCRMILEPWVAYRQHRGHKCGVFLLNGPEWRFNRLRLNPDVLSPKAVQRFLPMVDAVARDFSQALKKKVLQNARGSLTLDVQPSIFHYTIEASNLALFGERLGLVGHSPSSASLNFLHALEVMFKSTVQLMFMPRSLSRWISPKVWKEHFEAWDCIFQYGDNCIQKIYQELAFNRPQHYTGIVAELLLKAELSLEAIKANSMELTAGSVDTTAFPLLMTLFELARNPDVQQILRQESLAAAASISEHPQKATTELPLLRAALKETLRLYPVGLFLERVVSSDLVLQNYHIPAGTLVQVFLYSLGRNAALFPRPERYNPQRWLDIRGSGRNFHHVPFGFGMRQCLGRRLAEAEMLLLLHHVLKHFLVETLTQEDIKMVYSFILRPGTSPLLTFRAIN
Test: in vitro aldosterone synthase inhibition (ASI cell), aldosterone production in NCI-H295R cells
Conditions: 1 μM Ang II, 24 hr
Quick note: pIC50 means taking -log10 of the concentration in moles per liter.

Sample records with pIC50:
CC1(C)C(=O)Nc2cccc(Cl)c2C1n1cncc1CO (racemic): 8.15
COc1ccc2c(c1)NC(=O)C(C)(C)C2n1ccnc1 (racemic): 7.47
Cc1cncn1C1c2ccc(F)cc2NC(=O)C1(C)C (racemic): 7.92
CN1C(=O)C(C)(C)C(n2ccnc2)c2ccccc21 (racemic): 8.00

Tell me the measured pIC50 of Cc1noc(-c2cncn2C2c3ccccc3NC(=O)C2(C)C)n1 (racemic) , please.
6.86
